System: β-galactosidase in CMV-LacZ C2C12 myoblasts
EXPERIMENTAL PROTOCOL: CMV-LacZ secondary screen in C2C12 myoblasts (β-Gal stabilizing assay)
Assay type: cell-based, mouse
MEASUREMENT CONTEXT: 0.5 uM; CMV-LacZ C2C12 myoblasts
MEASURE NAME: CMV-LACZ in Myoblasts (β-galactosidase activity relative to DMSO)

{"columns": ["MOLECULE", "VAL"],
 "data": [
  ["CCOC(=O)c1sc(=N)n(-c2ccc(OC)cc2)c1C [MLS000090135-01]", 1.0896],
  ["CSc1ccc(S(=O)(=O)NCc2ccccc2)cc1 [MLS000531177-01]", 1.0785],
  ["CN1C(=O)N(CC(=O)N2CCN(S(=O)(=O)c3ccc(Cl)s3)CC2)C(=O)C12CCCCC2 [MLS002162890-01]", 0.8392],
  ["CCCC(=O)OCC(=O)c1[nH]c(C)c(C(C)=O)c1C [MLS001007892-01]", 0.9338],
  ["COc1ccc(OC)c(S(=O)(=O)Nc2c(NC3CCCCC3)c3ccccc3oc2=O)c1 [MLS001095705-01]", 1.2060],
  ["CCC(C)n1[nH]c(=O)cc1N (stereo not drawn) [MLS000073150-01]", 1.0753],
  ["COc1cc(NC(=O)OCc2ccccc2)c2ncccc2c1 [MLS002667707-01]", 1.1434],
  ["CCOC(=O)c1cc(C(=O)OCC)c(=O)[nH]c1SCc1ccccc1 [MLS001008109-01]", 0.9542],
  ["CC1(C)Cc2c(c(N3CCOCC3)nc3sc(C(=O)Nc4ccccc4)c(N)c23)CO1 [MLS001075922-01]", 0.9434]
]}

====

System: β-galactosidase in CMV-LacZ C2C12 myoblasts
EXPERIMENTAL PROTOCOL: CMV-LacZ secondary screen in C2C12 myoblasts (β-Gal stabilizing assay)
Format: cell-based, mouse
MEASUREMENT CONTEXT: 10 uM; CMV-LacZ C2C12 myoblasts
Documented CMV-LACZ in Myoblasts (β-galactosidase activity relative to DMSO) across a set of compounds
MEASURE NAME: CMV-LACZ in Myoblasts (β-galactosidase activity relative to DMSO)

{"columns": ["COMPOUND", "VAL"],
 "data": [
  ["Cc1cc(C)cc(OCC(=O)N/N=C/c2ccccn2)c1", 1.0823],
  ["CC(C)Oc1cccc(C(=O)Nc2ccc(CN3CCOCC3)cc2)c1", 1.1632],
  ["COc1ccc(CNC(=O)C2CCCN(S(=O)(=O)c3c(C)noc3/C=C/N(C)C)C2)cc1 (stereo not shown)", 0.8397],
  ["O=C(N[C@@H](Cc1c[nH]c2ccccc12)C(=O)O)C1CCN(S(=O)(=O)c2cccs2)CC1", 0.9395]
]}

====

System: β-galactosidase in CMV-LacZ C2C12 myoblasts
EXPERIMENTAL PROTOCOL: CMV-LacZ secondary screen in C2C12 myoblasts (β-Gal stabilizing assay)
Assay type: cell-based, mouse
MEASUREMENT CONTEXT: 1 uM; SU9516 analogs, C2C12 CMV-LacZ, N=2
Rule: CMV-LACZ in Myoblasts, value relative to DMSO of 0.9 or more gives True; anything lower gives False.

{"columns": ["MOLECULAR STRING", "LABEL CLASS"],
 "data": [
  ["CCOc1cc2c3c(c1)C(C)=CC(C)(C)N3C(=O)C2=O", "False"],
  ["N#C/C(=C1/C(=O)Nc2ccc(Br)cc21)c1ccccn1", "True"],
  ["Cc1ncc(/C=C2\\C(=O)Nc3ccccc32)[nH]1", "True"],
  ["Cc1ccc(/C=C2\\C(=O)Nc3ccccc32)o1", "False"],
  ["O=C1Nc2ccccc2/C1=C/c1cccnc1", "True"],
  ["Cc1ccc2c(c1)/C(=C/c1ccccc1F)C(=O)N2", "True"],
  ["C=CCOc1ccc(C(=O)/C=C2/C(=O)Nc3ccccc32)cc1", "True"],
  ["O=C1Nc2ccccc2/C1=C/c1ccc([N+](=O)[O-])cc1", "False"],
  ["O=C1Nc2ccccc2/C1=C/c1c[nH]cn1", "True"]
]}
